measurementTarget: PI3Kβ (Homo sapiens (Human), UniProt P42338)
Sequence (P42338 whole entry, canonical isoform): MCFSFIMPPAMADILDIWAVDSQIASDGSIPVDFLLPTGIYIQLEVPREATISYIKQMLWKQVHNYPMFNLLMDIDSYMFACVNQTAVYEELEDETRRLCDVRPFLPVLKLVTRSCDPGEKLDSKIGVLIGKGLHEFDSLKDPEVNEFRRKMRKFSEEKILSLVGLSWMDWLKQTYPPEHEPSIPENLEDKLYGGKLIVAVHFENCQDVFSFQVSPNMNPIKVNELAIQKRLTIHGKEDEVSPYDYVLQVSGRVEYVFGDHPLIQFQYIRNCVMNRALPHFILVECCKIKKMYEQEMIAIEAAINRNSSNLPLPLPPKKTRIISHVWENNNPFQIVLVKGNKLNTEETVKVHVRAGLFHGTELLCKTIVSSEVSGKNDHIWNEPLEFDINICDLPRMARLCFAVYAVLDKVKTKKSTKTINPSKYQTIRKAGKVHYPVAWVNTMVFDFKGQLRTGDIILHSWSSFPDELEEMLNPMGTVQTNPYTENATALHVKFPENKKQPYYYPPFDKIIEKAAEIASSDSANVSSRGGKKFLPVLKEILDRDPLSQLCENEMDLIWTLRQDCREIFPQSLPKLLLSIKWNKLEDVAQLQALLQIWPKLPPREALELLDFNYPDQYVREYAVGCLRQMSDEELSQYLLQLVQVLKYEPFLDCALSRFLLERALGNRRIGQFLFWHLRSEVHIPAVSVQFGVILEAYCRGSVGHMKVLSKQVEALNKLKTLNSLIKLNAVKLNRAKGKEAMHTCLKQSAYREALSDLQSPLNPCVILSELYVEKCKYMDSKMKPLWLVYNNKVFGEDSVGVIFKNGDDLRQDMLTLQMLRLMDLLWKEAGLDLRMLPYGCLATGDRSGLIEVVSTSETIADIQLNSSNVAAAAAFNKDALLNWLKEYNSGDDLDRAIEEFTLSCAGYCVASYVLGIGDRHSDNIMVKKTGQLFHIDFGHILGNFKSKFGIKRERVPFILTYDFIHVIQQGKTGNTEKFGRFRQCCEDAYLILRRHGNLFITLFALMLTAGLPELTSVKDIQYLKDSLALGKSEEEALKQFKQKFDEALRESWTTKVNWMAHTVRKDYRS
Sequence (P27986 whole entry partner, canonical isoform): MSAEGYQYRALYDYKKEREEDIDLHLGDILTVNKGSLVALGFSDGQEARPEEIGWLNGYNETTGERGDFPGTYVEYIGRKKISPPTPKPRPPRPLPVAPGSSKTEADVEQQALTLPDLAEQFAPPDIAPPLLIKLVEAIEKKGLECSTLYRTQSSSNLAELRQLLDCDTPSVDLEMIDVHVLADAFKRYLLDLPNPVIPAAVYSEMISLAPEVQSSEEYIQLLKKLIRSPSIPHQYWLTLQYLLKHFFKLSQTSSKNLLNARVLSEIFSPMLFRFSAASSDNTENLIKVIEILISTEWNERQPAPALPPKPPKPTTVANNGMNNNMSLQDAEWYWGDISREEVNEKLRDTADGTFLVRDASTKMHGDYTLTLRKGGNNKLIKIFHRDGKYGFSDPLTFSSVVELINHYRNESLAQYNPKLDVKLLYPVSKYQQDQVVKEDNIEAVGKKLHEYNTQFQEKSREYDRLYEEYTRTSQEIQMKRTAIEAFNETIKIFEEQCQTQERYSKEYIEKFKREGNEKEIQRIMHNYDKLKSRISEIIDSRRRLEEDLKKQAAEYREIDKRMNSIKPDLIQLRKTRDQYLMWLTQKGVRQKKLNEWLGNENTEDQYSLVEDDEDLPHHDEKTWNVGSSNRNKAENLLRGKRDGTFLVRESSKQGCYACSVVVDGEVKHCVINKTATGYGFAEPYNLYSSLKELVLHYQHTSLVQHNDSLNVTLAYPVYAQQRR
experimentalProtocol: PI3K isoform TR-FRET enzymatic assay (PI3Kβ)
testConditions: 2× Km ATP, 30 minutes at 25° C.
valueType: IC50 (nM)
All answers are understood in nM, so give the number only.

> print(dat)
                               smilesstring                         measurementtarget  endpointvalue
1  Cc1nc2c(-c3cnn[nH]3)cc(N3CCOCC3)cc2n1-c1ccnc2c(F)ccc(F)c12  PI3Kβ (Homo sapiens (Human), UniProt P42338)             35
2  Cc1nc2c(-c3cnc(Cl)[nH]3)cc(N3CCOCC3)cc2n1-c1ccnc2c(F)ccc(Cl)c12  PI3Kβ (Homo sapiens (Human), UniProt P42338)             50
3  Fc1cccc2c(-n3c(C4CC4)nc4c(-c5cnc(Cl)[nH]5)cc(N5CCOCC5)cc43)ccnc12  PI3Kβ (Homo sapiens (Human), UniProt P42338)             56

Task: Give recorded IC50 with PI3Kβ (Homo sapiens (Human), UniProt P42338) for the following compound: Cc1cc(-n2c(C)nc3c(-c4nc(C)n[nH]4)cc(N4CCOCC4)cc32)c2ccc(F)cc2n1
Result: 110

---

// reported pIC50 for each item listed
measurementTarget: PI3Kβ (Homo sapiens (Human))
experimentalProtocol: PI3K isoform TR-FRET enzymatic assay (PI3Kβ)
testConditions: 2× Km ATP, 30 minutes at 25° C.
Field pIC50 (float): negative decimal logarithm of the concentration in molar.

Record excerpt, results attached:
> print(dat)
                                   molecule  valuetype  endpointvalue
1  Fc1ccc(Cl)c2nccc(-n3c(C4CC4)nc4c(-c5nnc(Cl)[nH]5)cc(N5CCOCC5)cc43)c12 [Example 174]      pIC50           7.89
2  CCc1nc2c(-c3cnc[nH]3)cc(N3CCOCC3)cc2n1-c1cc(C)nc2c(F)cccc12 [Example 211]      pIC50           7.66
3  Fc1cccc2c(-n3cnc4c(-c5cnc(Cl)[nH]5)cc(N5CCOCC5)cc43)ccnc12 [Example 292]      pIC50           7.38
4  CCCc1nc2c(-c3nnc(C)[nH]3)cc(N3CCOCC3)cc2n1-c1ccnc2cc(F)ccc12 [Example 21]      pIC50           6.89
5  Cc1nc2c(-c3nnc[nH]3)cc(N3CCOCC3)cc2n1-c1c(F)cnc2ccccc12 [Example 153]      pIC50           6.92
6  CCc1nc2c(-c3nnc(C)[nH]3)cc(N3CCOCC3)cc2n1-c1c(Cl)cnc2c(Cl)cccc12 (atropisomer, axis not shown) [Compound 349]      pIC50           6.36

Task: Which pIC50 is listed for CCc1nc2c(-c3nnc(C)[nH]3)cc(N3CCOCC3)cc2n1-c1ccnc2c(Cl)cccc12 [Example 133] ?
Result: 7.68

Task: Next molecule: Cc1ccc(F)c2c(-n3c(C)nc4c(-c5nnc[nH]5)cc(N5CCOCC5)cc43)ccnc12 [Example 124]
Result: 8.05

---

measurementTarget: PI3Kβ (Homo sapiens (Human), UniProt P42338)
experimentalProtocol: PI3K isoform TR-FRET enzymatic assay (PI3Kβ)
testConditions: 2× Km ATP, 30 minutes at 25° C.
valueType: IC50

Past entries and their recorded results:
> print(dat)
                                   compound  valuetype  endpointvalue
1  CCCc1nc2c(-c3nnc(C)[nH]3)cc(N3CCOCC3)cc2n1-c1ccnc2c(Cl)cccc12 [Example 46]       IC50          19 nM
2  Cc1cnc2ccccc2c1-n1c(C)nc2c(-c3nnc[nH]3)cc(N3CCOCC3)cc21 [Example 65]       IC50          24 nM
3  Clc1cccc2c(-n3c(-c4cnsc4)nc4c(-c5nnc[nH]5)cc(N5CCOCC5)cc43)ccnc12 [Example 118]       IC50          52 nM
4  CCCc1nc2c(-c3nnc[nH]3)cc(N3CCOCC3)cc2n1-c1ccnc2c(Cl)c(F)ccc12 [Example 34]       IC50          10 nM

Task: Name the recorded IC50 for Fc1ccc(F)c2c(-n3c(CC4CC4)nc4c(-c5cnc(Cl)[nH]5)cc(N5CCOCC5)cc43)ccnc12 [Example 302] .
Result: 24 nM

Task: Can you handle CCCc1nc2c(-c3nc(C)cs3)cc(N3CCOCC3)cc2n1-c1ccnc2c(F)ccc(F)c12 [Example 235] next?
Result: 17 nM

Task: Another: Cc1nc2c(-c3nnc[nH]3)cc(N3CCOCC3)cc2n1-c1ccnc2c(F)c(F)ccc12 (atropisomer, axis not shown) [Compound 352]
Result: 7 nM

Task: Same again, this time with c1ccc2c(-n3cnc4c(-c5nnc[nH]5)cc(N5CCOCC5)cc43)cc(-c3cc[nH]n3)nc2c1 [Example 383]
Result: 11 nM

Task: Entry Cc1nc2c(-c3nnc[nH]3)cc(N3CCOCC3)cc2n1-c1c(-c2nnc[nH]2)cnc2ccccc12 [Example 392] please
Result: 9 nM

Task: Now give it for Cc1nnc(-c2cc(N3CCOCC3)cc3c2ncn3-c2ccnc3c(F)ccc(F)c23)[nH]1 [Example 44] too.
Result: 19 nM

Task: Now the compound CCCc1nc2c(-c3ncco3)cc(N3CCOCC3)cc2n1-c1ccnc2c(F)ccc(F)c12 (atropisomer, axis not shown) [Compound 356]
Result: > 10000 nM

Task: What about this compound? CCc1nc2c(-c3nnc[nH]3)cc(N3CCOCC3)cc2n1-c1ccnc2c(F)ccc(F)c12 [Example 125]
Result: 16 nM

Task: Follow-up item: Cc1nc2c(-c3nnc[nH]3)cc(N3CCOCC3)cc2n1-c1ccnc2c(F)ccc(F)c12 [Example 114]
Result: 12 nM

Task: What about this compound? Cc1nc2c(-c3cccc(C(N)=O)c3)cc(N3CCOCC3)cc2n1-c1ccnc2c(-c3cccc(C(N)=O)c3)cccc12 [Example 322]
Result: > 10000 nM
